# Experimental System: Type-2 angiotensin II receptor (Sus scrofa)
# Protocol Details: Displacement of [125I]Ang2 from AT2 receptor in pig uterus membrane
pKi: −log10 of the molar value.
Readout Label: pKi

CCCCS(=O)(=O)NC(=O)c1sc(CC(C)C)cc1-c1ccc(Cn2ccnc2)cc1 | 7.10
CCCCS(=O)(=O)NS(=O)(=O)c1sc(CC(C)C)cc1-c1ccc(Cn2ccnc2)cc1 | 7.12
CCCCOC(=O)NS(=O)(=O)c1ccc(CCCC)cc1-c1ccc(Cn2ccnc2)cc1 | 8.30

(A) CCCCOC(=O)NS(=O)(=O)c1sc(CCCC)cc1-c1ccc(Cn2ccnc2)cc1
(B) CC(C)Cc1cc(-c2ccc(Cn3ccnc3)cc2)c(S(=O)(=O)NC(=O)OC(C)(C)C)s1
Identify the entry with the smaller pKi: A or B . Pick one; state its label. B
(B: 7.20, A: 8.30)

The origin of these recorded values is BindingDB's records for doi:10.1021/jm0606185.
